experimental.system: Tyrosine-protein kinase BTK (Homo sapiens)
Sequence (Q06187 whole entry): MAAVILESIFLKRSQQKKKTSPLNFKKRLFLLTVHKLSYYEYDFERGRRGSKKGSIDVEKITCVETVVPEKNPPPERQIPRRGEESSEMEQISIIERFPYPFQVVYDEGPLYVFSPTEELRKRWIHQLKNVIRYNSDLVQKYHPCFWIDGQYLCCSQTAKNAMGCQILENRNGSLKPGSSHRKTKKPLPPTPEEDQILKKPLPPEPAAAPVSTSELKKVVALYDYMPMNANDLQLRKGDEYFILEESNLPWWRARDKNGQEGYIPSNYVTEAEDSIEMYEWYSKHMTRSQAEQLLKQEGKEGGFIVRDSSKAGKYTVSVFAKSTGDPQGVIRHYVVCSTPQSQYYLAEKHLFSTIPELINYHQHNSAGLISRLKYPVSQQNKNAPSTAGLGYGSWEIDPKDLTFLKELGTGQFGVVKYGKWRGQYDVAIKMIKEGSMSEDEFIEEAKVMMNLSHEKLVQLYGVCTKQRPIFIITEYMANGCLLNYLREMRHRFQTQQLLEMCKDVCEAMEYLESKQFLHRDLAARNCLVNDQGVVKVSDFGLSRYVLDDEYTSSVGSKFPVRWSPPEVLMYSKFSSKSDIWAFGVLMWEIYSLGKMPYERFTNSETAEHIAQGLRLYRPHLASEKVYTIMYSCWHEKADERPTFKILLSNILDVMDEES
experiment: Inhibition of human recombinant full-length N-terminal His-tagged BTK expressed in baculovirus infected Sf9 insect cells measured after 60 mins by ADP-Glo kinase assay

>  <molecule>
C=CC(=O)Nc1cccc(Nc2nc(Nc3ccc(CP(=O)(OCC)N4CCOCC4)cc3)ncc2Cl)c1 (stereo unspecified)

>  <experimental.system>
Tyrosine-protein kinase BTK (Homo sapiens)

>  <result.unit>
µM

>  <IC50>
0.112

$$$$
>  <molecule>
C=CC(=O)Nc1cccc(Nc2nc(Nc3ccc(OCCCP(=O)(OCC)OCC)cc3)ncc2F)c1

>  <experimental.system>
Tyrosine-protein kinase BTK (Homo sapiens)

>  <result.unit>
µM

>  <IC50>
0.0216

$$$$
>  <molecule>
C=CC(=O)Nc1cccc(Nc2nc(Nc3ccc(CP(=O)(OCC)OCC)cc3)ncc2F)c1

>  <experimental.system>
Tyrosine-protein kinase BTK (Homo sapiens)

>  <result.unit>
µM

>  <IC50>
0.0321

$$$$
>  <molecule>
C=CC(=O)Nc1cccc(Nc2nc(Nc3ccc(OCCCP(=O)(OCC)N4CCOCC4)cc3)ncc2Cl)c1 (stereo unspecified)

>  <experimental.system>
Tyrosine-protein kinase BTK (Homo sapiens)

>  <result.unit>
µM

>  <IC50>
0.00082

$$$$
>  <molecule>
C=CC(=O)Nc1cccc(Nc2nc(Nc3ccc(OCCCP(=O)(OCC)OCC)cc3)ncc2Cl)c1

>  <experimental.system>
Tyrosine-protein kinase BTK (Homo sapiens)

>  <result.unit>
µM

>  <IC50>
0.0106

$$$$
>  <molecule>
C=CC(=O)Nc1cccc(Nc2nc(Nc3ccc(CP(=O)(OCC)OCC)cc3)ncc2Cl)c1

>  <experimental.system>
Tyrosine-protein kinase BTK (Homo sapiens)

>  <result.unit>
µM

>  <IC50>
0.00123

$$$$

The values you see were collected from ChEMBL document CHEMBL3872267.
